recorded metric: melting point

- N=C(N)c1ccccc1-c1ccccc1: 148 to 150 °C
- CCCCc1c(Cl)nc(N)nc1-c1cc2ccccc2o1: 195 to 196 °C
- COc1cc(Br)c(O)c(/C=C/C(=O)/C=C/c2cc(OC)cc(Br)c2O)c1: 155 to 157 °C
- CO/N=C(/C(N)=O)c1ccccc1Oc1ccccc1: 98 to 99 °C
- O=C1CCOc2ccc(OCc3ccccc3)cc21: 107 to 108 °C
- CCN1c2ncc(CCl)cc2C(=O)N(C)c2ccc(Cl)nc21: 133 to 134 °C

====

Reported melting point values for a set of compounds
recorded metric: melting point

• COc1cc(-c2nc(NC(C)C)c3c(C)c(C#N)sc3n2)cc(OC)c1OC = 191 to 193 °C
• O=C(O)[C@H]1CN(c2ccc(C3=CCSCC3)c(F)c2)C(=O)O1 = 106 to 110 °C
• CC(C)(C)OC(=O)c1cnc(NC(=O)[C@H](CC2CCCC2)c2ccc(S(C)(=O)=O)c(Cl)c2)cn1 = 121 to 127 °C
• CN1c2ccc(C(C)(C)C)cc2[C@H]2Cc3ccccc3[C@H]21 (relative stereo) = 74 °C
• Cc1coc(NC(=O)C2=C(O)c3c(c4ccccc4n3C)S(=O)(=O)N2C)n1 = 128 °C
• COc1ccc2c(ccn3c(C(F)(F)F)nnc23)c1 = 214 to 215 °C
• N=C(CC=O)c1ccccc1 = 80 to 82 °C
• COc1cccc(Oc2c(NS(=O)(=O)c3ccc(C(C)(C)C)cc3)ncnc2SCCOc2ncccn2)c1 = 168 °C
• CC(C)OC(=O)c1nc(-c2ccc(=O)[nH]c2)c(-c2ccccc2)nc1N = 250 to 256 °C

Values were extracted from a melting point compilation (Tetko et al.; mined from patent text by program, amines drawn as free bases though some values may be those of a salt).
